Target: Prostaglandin G/H synthase 2 (Homo sapiens, UniProt P35354)
Sequence (P35354 whole entry): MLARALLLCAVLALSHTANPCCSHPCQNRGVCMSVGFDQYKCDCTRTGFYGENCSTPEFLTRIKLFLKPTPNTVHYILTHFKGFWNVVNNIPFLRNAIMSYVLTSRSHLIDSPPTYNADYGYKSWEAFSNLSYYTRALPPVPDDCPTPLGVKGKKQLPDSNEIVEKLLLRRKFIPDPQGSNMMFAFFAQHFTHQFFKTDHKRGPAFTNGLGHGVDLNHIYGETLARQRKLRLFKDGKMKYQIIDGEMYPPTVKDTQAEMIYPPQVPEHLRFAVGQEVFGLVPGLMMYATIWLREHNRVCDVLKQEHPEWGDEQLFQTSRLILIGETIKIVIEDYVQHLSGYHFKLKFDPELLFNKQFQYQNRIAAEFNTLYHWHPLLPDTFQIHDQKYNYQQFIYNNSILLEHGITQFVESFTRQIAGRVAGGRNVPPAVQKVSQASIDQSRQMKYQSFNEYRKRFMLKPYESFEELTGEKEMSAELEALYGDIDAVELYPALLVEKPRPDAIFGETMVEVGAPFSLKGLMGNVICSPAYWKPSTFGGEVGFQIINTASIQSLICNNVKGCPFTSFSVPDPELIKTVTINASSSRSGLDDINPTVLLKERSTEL
Assay: Inhibition of recombinant human COX-2 using arachidonic acid as substrate preincubated for 10 mins followed by substrate addition and measured after 2 mins by ELISA
MEASUREMENT NAME: IC50 (nM)

| COMPOUND SMILES | READOUT UNITS | RECORDED VALUE |
| --- | --- | --- |
| NS(=O)(=O)c1ccc(-c2nnc(SCC(=O)O)n2-c2ccc(I)cc2)cc1 | nM | 54 |
